tested on: Amphibalanus improvisus; test: Antifouling activity against Balanus improvisus […] assessed as inhibition of cyprid larval settlement at 0.1 to 10 uM after 3 to 4 days relative to control; format: functional, organism-based
Activity calls are given as the source filed them. No cut-off for these calls is given here.
Select the matching outcome among 1.0 (active), 0.0 (inactive)

**Q:** What was the test verdict on NC(Cc1c[nH]c2cc(Br)ccc12)C(=O)O (racemic) ?
**A:** 0.0

**Q:** What was the test verdict on "N=C(N)NCCC[C@H](N)C(=O)O" ?
**A:** 0.0

**Q:** What was the test verdict on NC(Cc1c[nH]c2ccc(Br)cc12)C(=O)O (racemic) ?
**A:** 0.0

**Q:** What was the test verdict on N=C(N)NCCCC1NC(=O)C(Cc2c[nH]c3cc(Br)ccc23)NC1=O.O=C(O)C(F)(F)F (configuration not stated) ?
**A:** 1.0

**Q:** What was the test verdict on NC(Cc1c[nH]c2cc(F)ccc12)C(=O)O (racemic) ?
**A:** 0.0

**Q:** What was the test verdict on "N[C@@H](Cc1c[nH]c2ccccc12)C(=O)O" ?
**A:** 0.0

**Q:** What was the test verdict on "N=C(N)NCCC[C@@H]1NC(=O)/C(=C/c2c[nH]c3cc(Br)ccc23)NC1=O.O=C(O)C(F)(F)F" ?
**A:** 1.0
